Biological target: Atrial natriuretic peptide receptor 1 (Homo sapiens) (UniProt P16066)
Sequence (P16066 whole entry, looked up): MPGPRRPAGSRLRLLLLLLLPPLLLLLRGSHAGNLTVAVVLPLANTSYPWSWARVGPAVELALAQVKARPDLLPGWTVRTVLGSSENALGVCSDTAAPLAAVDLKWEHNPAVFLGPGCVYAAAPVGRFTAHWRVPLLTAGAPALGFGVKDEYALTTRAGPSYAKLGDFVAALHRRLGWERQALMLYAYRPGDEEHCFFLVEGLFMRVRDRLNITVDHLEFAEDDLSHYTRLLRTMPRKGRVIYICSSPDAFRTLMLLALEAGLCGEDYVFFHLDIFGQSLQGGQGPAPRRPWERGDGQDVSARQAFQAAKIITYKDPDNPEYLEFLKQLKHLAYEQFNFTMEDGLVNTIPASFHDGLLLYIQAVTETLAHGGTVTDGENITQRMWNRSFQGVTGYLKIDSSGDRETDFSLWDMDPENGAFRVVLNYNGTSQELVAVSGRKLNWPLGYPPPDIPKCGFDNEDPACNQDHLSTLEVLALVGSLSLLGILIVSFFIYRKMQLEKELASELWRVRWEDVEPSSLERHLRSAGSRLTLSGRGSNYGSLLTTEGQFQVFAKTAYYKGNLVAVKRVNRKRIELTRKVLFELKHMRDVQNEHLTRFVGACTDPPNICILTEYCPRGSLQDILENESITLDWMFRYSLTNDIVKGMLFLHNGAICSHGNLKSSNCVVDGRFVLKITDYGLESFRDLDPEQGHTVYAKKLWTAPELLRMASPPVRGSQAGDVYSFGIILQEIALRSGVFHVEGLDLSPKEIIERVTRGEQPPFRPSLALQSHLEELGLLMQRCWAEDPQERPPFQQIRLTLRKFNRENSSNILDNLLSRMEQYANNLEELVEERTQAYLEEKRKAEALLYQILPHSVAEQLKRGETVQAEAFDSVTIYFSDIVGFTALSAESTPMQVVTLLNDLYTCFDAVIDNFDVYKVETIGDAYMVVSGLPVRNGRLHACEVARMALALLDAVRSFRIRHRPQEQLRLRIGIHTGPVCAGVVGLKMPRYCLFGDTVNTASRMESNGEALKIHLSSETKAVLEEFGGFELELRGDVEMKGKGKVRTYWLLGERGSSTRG
Assay: Natriuretic polypeptide receptor (hNpr1) antagonism - Pilot CMLD screen (AID 1347052);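 note: cGMP level read as GloSensor luciferase luminescence after agonist stimulation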
Conditions: HEK293 hNpr1 GloSensor cGMP luminescence, ANP-stimulated; series mostly up to 9.22 µM
Results filed as inconclusive are left out. The source made the active and inactive calls. Calls come from the whole dose curve.
Tick one outcome: 1 = active, 0 = inactive

For orientation, consider the following solved cases.
COc1ccc(COC(=O)NN=C2C[C@@H](O)[C@@H](O)[C@@H]3[C@H]4C(=O)N(C5CCCCC5)C(=O)[C@@H]4CC[C@H]23)cc1: 0
CCCNC(=O)OC[C@H]1O[C@H](CCON=Cc2ccc(C(=O)N3[C@H](C(=O)OC)CC[C@H](C)[C@@H]3c3ccc(C)cc3)cc2)C=C[C@H]1Oc1ccc(OC)cc1: 0
COC(=O)CC1OC1[C@H](C)[C@@H](OC)C(C)C (some centres undefined): 0
CCOC(=O)C1=CN(CCC=C(C)C)C(=O)N(C(C)=O)C1c1ccccc1 (centres undefined): 0
C=C(C(C)=O)C(O)c1ccc([N+](=O)[O-])cc1 (centres undefined): 1
COC1=C[C@H](C(=O)NCCNC(C)=O)[C@H](C)[C@@H](c2ccccc2)CC1=O: 0

Outcome logged for COC(=O)C1=C(C)N(Cc2ccccc2)C(=S)NC1c1cccc(C(F)(F)F)c1 (centres undefined) in this assay:
0

Outcome logged for `COC(=O)[C@@H]1CC[C@H](C)[C@@H](c2ccc(C)cc2)N1C(=O)c1ccc(C=NOC[C@@H](O)COCc2ccco2)cc1` in this assay:
0
